Entries annotated with measured IC50
# Tested on: Rat2 fibroblasts stably transformed with a plasmid containing a CMV promotor controlled v-Src/Hu c-Src fusion gene
# test: Anchorage Independent Src-transformed Fibroblast Proliferation Assay
# study conditions: Rattus norvegicus, Rat2, 120 h, read-out: anch-indep src-tx fib IC50, suspension growth, MTS on Day 5

Observe how each entry below is paired with its result.
COc1cc(Nc2c(C#N)cnc3cc(-c4ccccc4CN4CCOCC4)ccc23)c(Cl)cc1Cl ... > 10 µM
COc1ccc(/C=C/c2ccc3c(Nc4cc(OC)c(Cl)cc4Cl)c(C#N)cnc3c2)cc1 ... > 10 µM

Moving on to the next compound.
Q. Query: IC50; subject: "COc1cc(Nc2c(C#N)cnc3cc(-c4ccsc4CN4CCOCC4)ccc23)c(Cl)cc1Cl"
A. > 10 µM

* * *

# Tested on: Rat2 fibroblasts stably transformed with a plasmid containing a CMV promotor controlled v-Src/Hu c-Src fusion gene
# test: Anchorage Independent Src-transformed Fibroblast Proliferation Assay
# study conditions: Rattus norvegicus, Rat2, 120 h, read-out: anch-indep src-tx fib IC50, suspension growth, MTS on Day 5
attribute measured: pIC50
// scale note: pIC50 = -log10(conc_M); give the bare number

COc1cc(Nc2c(C#N)cnc3cc(C#CCCl)ccc23)c(Cl)cc1Cl ... 5.32

Q. Query: pIC50; subject: "COc1cc(Nc2c(C#N)cnc3cc(-c4cnc(CN5CCOCC5)n4C)c(OC)cc23)c(Cl)cc1Cl"
A. 5.46

Q. Query: pIC50; subject: "COc1cc(Nc2c(C#N)cnc3cc(-c4ccc(CCCCN5CCOCC5)s4)ccc23)c(Cl)cc1Cl"
A. 6.22

Q. Query: pIC50; subject: "COc1cc(Nc2c(C#N)cnc3cc(-c4ccc(CN(C)C)cc4)ccc23)c(Cl)cc1Cl"
A. 6.68

Q. Query: pIC50; subject: COc1cc(Nc2c(C#N)cnc3cc(-c4ccc(CN5CCCCC5C(=O)O)cc4)ccc23)c(Cl)cc1Cl (stereo not shown)
A. 5.34

Q. Query: pIC50; subject: "CCN1CCN(c2ccc(-c3ccc4c(Nc5cc(OC)c(Cl)cc5Cl)c(C#N)cnc4c3)nc2)CC1"
A. 6.57

Q. Query: pIC50; subject: CCOC(=O)C1CCCN(Cc2ccc(-c3ccc4c(Nc5cc(OC)c(Cl)cc5Cl)c(C#N)cnc4c3)cc2)C1 (stereo not shown)
A. 5.68

Q. Query: pIC50; subject: "COc1cc(Nc2c(C#N)cnc3cc(-c4ccc(CN5CCOCC5)o4)ccc23)c(Cl)cc1Cl"
A. 6.60

* * *

pIC50: −log10 of the molar value.
Recorded pIC50 values (c-Src (Homo sapiens, UniProt P12931)) are given below.

Q. Query: pIC50; subject: COc1cc(Nc2c(C#N)cnc3cc(-c4sccc4C=O)ccc23)c(Cl)cc1Cl [Example 163]
A. < 6.00

Q. Query: pIC50; subject: COc1cc(Nc2c(C#N)cnc3cc(-c4cccn4C(=O)OC(C)(C)C)ccc23)c(Cl)cc1Cl [Example 164]
A. < 6.00

Q. Query: pIC50; subject: COc1cc(Nc2c(C#N)cnc3cc(-c4ccc(CN5CCOCC5)s4)ccc23)c(Cl)cc1Cl [Example 23]
A. 8.70

Attribution: patent EP1268431B1
